B1: Cytoplasmic polyadenylation element-binding protein 2, residues 513 to 575; numbered along this chain, Q7Z5Q1 (parent)
chain: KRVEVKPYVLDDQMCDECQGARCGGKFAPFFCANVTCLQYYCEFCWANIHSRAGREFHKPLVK

# Variants of: B1
# Assay Protocol: abundance fitness (aPCA) (normalised: wild type 0, dead -1); higher = more abundant; growth selection in yeast, the domain comes from the species named
# Assay Context: Homo sapiens
Would you mind labelling by abundance fitness? At or over -0.3 is Criterion met, under is Criterion not met.

Decide: is the reported value of abundance fitness for `R52S` equal to or greater than -0.3?
Criterion met

Moving on to the next variant: `M14F`
Criterion met

Moving on to the next variant: `K63D`
Criterion not met

Moving on to the next variant: `C37G`
Criterion not met

Moving on to the next variant: `I49A`
Criterion met

Every entry's value here was drawn from the Human Domainome abundance scans (Beltran et al. 2025).
